- Tested on: HeLa Kyoto;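 further: synchronized HeLa Kyoto cells (double thymidine block for G1/S, nocodazole release for mitosis), protein amounts in NP-40 versus SDS lysates quantified by mass spectrometry, three biological replicates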
- Method summary: solubility change mitosis vs G1/S (difference of NP-40 vs SDS log2 ratios) (log2 ratio difference); higher = more soluble in mitosis
Measured quantity: solubility change mitosis (log2)
Just the number, please, no unit after it.

| Seq | Experimental system | solubility change mitosis (log2) |
| --- | --- | --- |
| MALQGISVVELSGLAPGPFCAMVLADFGARVVRVDRPGSRYDVSRLGRGKRSLVLDLKQPRGAAVLRRLCKRSDVLLEPFRRGVMEKLQLGPEILQRENPRLIYARLSGFGQSGSFCRLAGHDINYLALSGVLSKIGRSGENPYAPLNLLADFAGGGLMCALGIIMALFDRTRTGKGQVIDANMVEGTAYLSSFLWKTQKLSLWEAPRGQNMLDGGAPFYTTYRTADGEFMAVGAIEPQFYELLIKGLGLKSDELPNQMSMDDWPEMKKKFADVFAEKTKAEWCQIFDGTDACVTPVLTFEEVVHHDHNKERGSFITSEEQDVSPRPAPLLLNTPAIPSFKRDPFIGEHTEEILEEFGFSREEIYQLNSDKIIESNKVKASL [AMACR] | HeLa Kyoto | -0.0545 |

Now take the following sequence into account.
For record MATAALLRGATPGRGGPVWRWRLRAAPRCRLAHSSCSPGGDPTAGAAWACFRLDGRTLLRVRGPDAAPFLLGLLTNELPLPSPAAAGAPPAARAGYAHFLNVQGRTLYDVILYGLQEHSEVSGFLLECDSSVQGALQKHLALYRIRRKVTVEPHPELRVWAVLPSSPEACGAASLQERAGAAAILIRDPRTARMGWRLLTQDEGPALVPGGRLGDLWDYHQHRYLQGVPEGVRDLPPGVALPLESNLAFMNGVSFTKGCYIGQELTARTHHMGVIRKRLFPVRFLDPLPTSGITPGATVLTASGQTVGKFRAGQGNVGLALLWSEKIKGPLHIRASEGAQVALAASVPDWWPTVSK [IBA57] the listed solubility change mitosis (log2) is 0.132
